- PROCEDURE_SUMMARY: chemical genetic growth profiling, strain panel (AID 1159580);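 note: tested at 20 µM; growth read once vehicle control cultures reached saturation at 30 °C; 1 = growth at the plate median or of vehicle wells; lower values mean less growth of the strain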
- CONDITIONS: S. cerevisiae deletion strains, growth OD, locus YJR066W, strain TOR1, active compounds read low
Among all 5,500 compounds or so, about 2,000 (36%) were called active. Another 18% or so got no clear call; they are omitted. The list shows a part of the results.
Measured normalized growth by item

COMPOUND: N/C(Cn1ccc(C(F)(F)F)n1)=N/OS(=O)(=O)c1cccc(Cl)c1Cl
normalized growth: 1.12 (inactive)

The value of normalized growth measured for the compound O=C(/C=C/c1ccc2c(c1)OCO2)Nc1ccc(Br)cc1 turned out to be 0.912 (inactive)

Record summary for CC(C)c1ccc(COC(=O)Nc2ccc(CSc3ccc(Cl)cc3)o2)cc1 : reported normalized growth = 1.01 (inactive)

Looking up Cc1cc(C(=O)NNS(=O)(=O)c2ccc(F)c(Cl)c2)nn1-c1c(Cl)cc(Cl)cc1Cl , I found its normalized growth recorded as 1.02 (inactive)

// normalized growth value for CC[C@@]1(O)C[C@H](O)c2c(cc3c(c2O)C(=O)c2c(O)ccc(O)c2C3=O)[C@H]1C(=O)OC : 0.941 (inactive)

The measured normalized growth associated with COc1cc([C@@H]2c3cc4c(cc3C(OC3O[C@@H]5COC(C)O[C@H]5[C@H](O)[C@H]3O)C3COC(=O)[C@@H]32)OCO4)cc(OC)c1O (some centres undefined) reads 0.995 (inactive)
